# Tested on: HCV genotype 1a (H77 strain) replicon in HUH-7 cells
# protocol summary: HCV replicon luciferase reporter assay, genotype 1a
# Assay type: cell-based
# run conditions: Hepatitis C virus, Huh-7, 72 h, HCV genotype 1a replicon luciferase, 3 days incubation, read-out: LE_1a (EC50)
Assign pEC50 to each entry below.
One number for each entry, as −log10 of the molar value.

Some compounds with known pEC50 results, for comparison:
compound="C[C@H]1CC/C=C\\[C@@H]2C[C@@]2(C(=O)NS(=O)(=O)C2CC2)NC(=O)[C@@H]2C[C@@H](Oc3nccc4c5c(ccc34)N(C)CCO5)CN2C(=O)[C@@H](NC(=O)NC(C)(C)C)[C@H](C)C1 [Compound 5283]" observed_measurement=8.32
compound="C[C@H]1CC/C=C\\[C@@H]2C[C@@]2(C(=O)NS(=O)(=O)C2(C)CC2)NC(=O)[C@@H]2C[C@@H](Oc3nc4c(c5ccccc35)OCCC4)CN2C(=O)[C@@H](NC(=O)OC(C)(C)C(C)(F)F)[C@H](C)C1 [Compound 6033]" observed_measurement=7.97
compound="CC[C@@H]1C[C@H](C)CC/C=C\\[C@@H]2C[C@@]2(C(=O)NS(=O)(=O)C2(C)CC2)NC(=O)[C@@H]2C[C@@H](Oc3nc(OC)cc4ccccc34)CN2C(=O)[C@H]1NC(=O)OC(C)(C)C [Compound 6005]" observed_measurement=8.89
compound="CCCOc1cnc(O[C@@H]2C[C@H]3C(=O)N[C@]4(C(=O)NS(=O)(=O)C5CC5)C[C@H]4/C=C\\CC[C@H](C)C[C@@H](C)[C@H](NC(=O)OC(C)(C)C)C(=O)N3C2)c2ccccc12 [Compound 5088]" observed_measurement=6.99

Hi, could you look up pEC50 for each item in my list?
1. [2H]C([2H])([2H])C(OC(=O)N[C@@H]1C(=O)N2C[C@H](Oc3nn(CC)c(=O)c4ccccc34)C[C@H]2C(=O)N[C@]2(C(=O)NS(=O)(=O)C3CC3)C[C@H]2/C=C\CC[C@@H](C)C[C@H]1C)(C([2H])([2H])[2H])C(F)(F)F [Compound 5069]
2. COc1ccc2c(O[C@@H]3C[C@H]4C(=O)N[C@]5(C(=O)NS(=O)(=O)C6CC6)C[C@H]5/C=C\CC[C@@H](C)C[C@@H](C)[C@H](NC(=O)OC(C)(C)C)C(=O)N4C3)nccc2c1 [Compound 1205]

7.83
9.21
